# target-under-test: HCMV polymerase (Human cytomegalovirus, UniProt P08546)
# Sequence (P08546 whole entry): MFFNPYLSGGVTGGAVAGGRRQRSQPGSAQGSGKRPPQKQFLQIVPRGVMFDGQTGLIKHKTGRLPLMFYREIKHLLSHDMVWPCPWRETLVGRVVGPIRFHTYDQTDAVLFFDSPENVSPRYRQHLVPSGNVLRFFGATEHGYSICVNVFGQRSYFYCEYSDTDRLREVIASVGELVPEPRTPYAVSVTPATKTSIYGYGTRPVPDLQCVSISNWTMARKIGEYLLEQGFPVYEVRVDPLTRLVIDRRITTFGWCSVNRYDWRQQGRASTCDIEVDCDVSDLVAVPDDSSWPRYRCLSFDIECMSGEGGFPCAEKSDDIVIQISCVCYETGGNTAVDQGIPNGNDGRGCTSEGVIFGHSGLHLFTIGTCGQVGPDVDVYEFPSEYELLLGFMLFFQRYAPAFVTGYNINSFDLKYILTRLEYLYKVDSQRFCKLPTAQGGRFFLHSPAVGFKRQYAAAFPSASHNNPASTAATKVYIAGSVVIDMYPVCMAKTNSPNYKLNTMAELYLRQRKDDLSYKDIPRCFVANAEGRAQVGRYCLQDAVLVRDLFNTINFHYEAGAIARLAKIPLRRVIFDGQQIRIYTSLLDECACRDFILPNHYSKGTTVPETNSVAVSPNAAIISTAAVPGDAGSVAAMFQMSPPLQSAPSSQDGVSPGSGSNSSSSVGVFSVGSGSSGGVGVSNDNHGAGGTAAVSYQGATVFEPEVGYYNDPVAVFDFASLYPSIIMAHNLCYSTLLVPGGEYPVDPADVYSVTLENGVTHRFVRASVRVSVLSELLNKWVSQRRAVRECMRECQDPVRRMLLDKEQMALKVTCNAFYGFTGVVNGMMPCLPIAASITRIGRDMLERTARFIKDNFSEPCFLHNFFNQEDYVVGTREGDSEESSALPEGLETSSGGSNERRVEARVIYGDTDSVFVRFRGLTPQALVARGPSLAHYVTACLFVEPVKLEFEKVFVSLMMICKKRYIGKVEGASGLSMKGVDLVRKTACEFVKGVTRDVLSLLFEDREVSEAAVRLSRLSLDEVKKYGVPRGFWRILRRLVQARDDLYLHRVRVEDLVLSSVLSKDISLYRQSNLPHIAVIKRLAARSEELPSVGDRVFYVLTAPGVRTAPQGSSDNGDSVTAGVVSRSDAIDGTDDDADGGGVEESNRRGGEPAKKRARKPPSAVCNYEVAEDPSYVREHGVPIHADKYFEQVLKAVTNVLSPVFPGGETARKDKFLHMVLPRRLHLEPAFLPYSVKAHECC
# test-protocol: HCMV polymerase assay (scintillation proximity assay, modified version)
# measurement-parameters: modified HCMV polymerase SPA; compounds diluted in 100% DMSO; 4.5 mM DTT
// reported pIC50 per item
When answering, recall that pIC50 equals minus log10 of the concentration in mol/L, and write that number alone.

Worked cases, answers included:
molecule-smiles	pIC50
Cc1nc2ncc(C(=O)NCc3ccc(Cl)cc3)c(O)c2cc1I	4.86
COC(=O)c1cc2c(O)c(C(=O)NCc3ccc(Cl)cc3)cnc2nc1C	5.07
Cc1ccc2c(O)c(C(=O)NCc3ccc(Cl)cc3)cnc2n1	4.59

Okay, next one:
Prompt: Fill in the recorded pIC50 for this molecule, with HCMV polymerase (Human cytomegalovirus, UniProt P08546) as test system: Cc1nc2ncc(C(=O)NCc3ccc(Cl)cc3)c(O)c2cc1C#CCO
Completion: 5.68

----------
# maps each entry to its melting point

Observe how each entry below is paired with its result.
molecule-smiles	melting point
Cc1nc2ncc(C(=O)NCc3ccc(Cl)cc3)c(O)c2cc1C#CCO	279 to 281 °C (dec.)
COC(=O)c1cc2c(O)c(C(=O)NCc3ccc(Cl)cc3)cnc2nc1C	265 to 267 °C
Cc1ccc2c(O)c(C(=O)NCc3ccc(Cl)cc3)cnc2n1	280 to 285 °C (dec.)
Cc1nc2ncc(C(=O)NCc3ccc(Cl)cc3)c(O)c2cc1I	276 to 277 °C

Now look at this entry.
Prompt: # lookup: melting point of Cc1nc2ncc(C(=O)NCc3ccc(Cl)cc3)c(O)c2cc1Br
Completion: 269 to 270 °C

Data provenance: patent US6413958B2
